B1: GAGE1 (parent)
chain: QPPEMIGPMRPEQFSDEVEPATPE

Variants of: B1
Test: protein stability index of a GFP-peptide fusion (GPS, HEK-293T) (PSI 1-6); higher = more stable;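 further: lentivirally expressed fusions sorted by FACS into six bins by GFP to DsRed ratio, PSI derived from sequencing read proportions per bin multiplied by bin number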
Details: c terminus: a fixed tail appended
Label YES for high-side protein stability index (at or above 5) and NO for low-side protein stability index (below it).

Solved entries:
G7R
YES
E4C
YES
E24V
NO

Does the reported protein stability index for "P2C" fall at or above the 5 mark?
YES

State whether the measured protein stability index reaches 5, counting equality as reaching it, for "V18Y"
NO
